# Tested on: RPMI-8226 leukemia
# ASSAY PROCEDURE: NCI-60 one-dose screen, 48 h
# PARTICULARS: 10 µM unless noted
About 83,000 compounds went through this panel and 20% of them were active in at least one assay; those are over-represented in the sample as a whole. The source made the active and inactive calls. The calls were made as follows: active = growth percent below 10; inactive = the rest.
Outcomes: active, inactive

COMPOUND | LABEL VALUE
COC12CC3C4=CCOC5CC(=O)N6c7ccccc7C1(CCN2C4)C6C53 (stereo unspecified) | inactive
O=c1c2ccccc2nc(-c2ccccc2Cl)n1-c1nnc(C(F)(F)F)s1 | active
ClCc1ccc(Cl)c(Cl)c1 | inactive
CCC1(NC(=O)c2cc(F)c(F)c(F)c2F)C(=O)NC(=O)N(C(C)C)C1=O (stereo unspecified) | inactive
O=C=Nc1ccc(Br)cc1 | inactive
CC(=O)OC1CC2(O)C(CCC3(C)C(c4ccc(=O)oc4)CCC32O)C2(C)CCC(OC3OC(CO)C(O)C(O)C3O)C=C12 (stereo unspecified) | active
C[C@]12CC[C@H](O)C[C@@H]1CC[C@@H]1[C@@H]2CC[C@]2(C)OC(=O)CC[C@@H]12 | inactive
O=C1C=C(N2CC2)c2ccccc2C1=O | inactive
COc1ccc(N)cc1N | inactive
Cn1cc(-c2csc(-c3cn(CCCCN4CCOCC4)c4ccc(F)cc34)n2)c2cccnc21 | inactive
N#CCC(=O)c1ccccc1 | inactive
